biological target: T1, recombinant human domain 1-3His6 of the cation-independent mannose-6-phosphate receptor (human, UniProt P11717 41-467); test: ELISA on coated antigen, 1st of 2 repeats
T1 construct: Biotinylated (NHS-PEG4-biotin) for BLI; Glycosylated; also called hDom1-3His6; hCI-M6PRD1-D3
readout.kind: log10 EC50 (log10 of the value in nM)

• anti-CI-M6PR VHH7 (VHH, His6-tagged (Pichia pastoris)) VHH: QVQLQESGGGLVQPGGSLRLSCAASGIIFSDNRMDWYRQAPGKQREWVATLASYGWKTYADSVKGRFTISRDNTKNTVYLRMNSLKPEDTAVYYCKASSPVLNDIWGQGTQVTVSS = -1.96
• anti-CI-M6PR VHH10 (VHH, His6-tagged; made in Pichia pastoris) VHH: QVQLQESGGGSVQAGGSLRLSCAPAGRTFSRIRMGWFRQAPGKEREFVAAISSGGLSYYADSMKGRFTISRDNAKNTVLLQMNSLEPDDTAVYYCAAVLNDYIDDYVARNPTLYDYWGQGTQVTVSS = -1.18
• anti-CI-M6PR VHH3 (VHH, His6-tagged; made in Pichia pastoris) VHH: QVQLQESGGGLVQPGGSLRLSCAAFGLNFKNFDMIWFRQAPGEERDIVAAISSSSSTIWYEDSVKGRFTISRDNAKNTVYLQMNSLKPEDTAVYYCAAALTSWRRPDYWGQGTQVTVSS = -1.42
• anti-CI-M6PR VHH5 (VHH, His6-tagged; made in Pichia pastoris, later also in E. coli WK6) VHH: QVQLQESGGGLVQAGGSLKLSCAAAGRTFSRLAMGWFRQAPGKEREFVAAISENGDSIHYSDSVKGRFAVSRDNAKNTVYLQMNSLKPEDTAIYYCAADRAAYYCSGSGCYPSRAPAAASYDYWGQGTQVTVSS = -1.09
• anti-CI-M6PR VHH9 (VHH, His6-tagged; made in Pichia pastoris) VHH: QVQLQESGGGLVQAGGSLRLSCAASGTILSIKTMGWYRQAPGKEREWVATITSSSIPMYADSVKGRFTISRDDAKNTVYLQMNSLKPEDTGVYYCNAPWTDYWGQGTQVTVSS = -2.19
• anti-CI-M6PR VHH8 (VHH, His6-tagged (Pichia pastoris)) VHH: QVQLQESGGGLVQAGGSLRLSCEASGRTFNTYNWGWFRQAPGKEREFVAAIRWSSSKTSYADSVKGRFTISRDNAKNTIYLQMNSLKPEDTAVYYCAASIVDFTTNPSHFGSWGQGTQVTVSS = -0.96
• anti-CI-M6PR VHH11 (VHH, His6-tagged; made in Pichia pastoris) VHH: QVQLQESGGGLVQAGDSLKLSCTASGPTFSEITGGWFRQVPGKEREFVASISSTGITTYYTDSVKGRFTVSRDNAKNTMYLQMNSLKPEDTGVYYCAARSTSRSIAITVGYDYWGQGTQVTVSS = -0.60
• anti-CI-M6PR VHH6 (VHH, His6-tagged; made in E. coli) VHH: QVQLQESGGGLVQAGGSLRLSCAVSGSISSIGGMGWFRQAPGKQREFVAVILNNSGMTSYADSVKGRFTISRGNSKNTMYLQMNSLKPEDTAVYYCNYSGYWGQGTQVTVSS = 1.93
• anti-CI-M6PR VHH1 (VHH, His6-tagged; made in Pichia pastoris, later also in E. coli WK6) VHH: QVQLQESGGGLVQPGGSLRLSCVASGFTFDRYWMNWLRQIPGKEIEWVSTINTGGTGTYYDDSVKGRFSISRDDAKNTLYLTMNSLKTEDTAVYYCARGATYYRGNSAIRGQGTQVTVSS = 0.25
• anti-CI-M6PR VHH2 (VHH, His6-tagged; made in Pichia pastoris) VHH: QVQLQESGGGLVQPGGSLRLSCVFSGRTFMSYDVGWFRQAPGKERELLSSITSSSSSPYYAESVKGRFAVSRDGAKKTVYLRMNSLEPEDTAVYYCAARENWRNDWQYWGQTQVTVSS = -1.22

Data credit: patent US20250263490A1
